log10 Kd listing for selected binders.
biological target: LgTrip 3546 (with His tag; SEQ ID NO: 51); assay: luminescence complementation; settings: modification not given
Sequence (chain, as listed by the source): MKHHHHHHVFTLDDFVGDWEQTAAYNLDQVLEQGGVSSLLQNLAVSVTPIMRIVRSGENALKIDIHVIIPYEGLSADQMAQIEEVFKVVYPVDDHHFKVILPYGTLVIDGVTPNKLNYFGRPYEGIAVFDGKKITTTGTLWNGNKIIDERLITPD
Recorded Kd (log10, nM)

So for DKMLFRVTIESWK [722] , the logged log10 Kd turned out to be 4.25

So for GKMLFRVTITKWK [672] , the logged log10 Kd turned out to be 1.00

So for DKLLFKVTIEKYK [755] , the logged log10 Kd turned out to be 3.16

So for DKLLFKVTIGKWK [750] , the logged log10 Kd turned out to be 2.54

So for GKMKFRVTIKSWK [718] , the logged log10 Kd turned out to be 2.58

So for GKMSFRVTINSWK [616] , the logged log10 Kd turned out to be 3.09

These entries and their values trace back to patent US20200270586A1.
